- target: CDK7/Cyclin H/MAT-1 complex (Homo sapiens, UniProt P50613)
- Construct: Human CDK7 (amino acids 1-346); His6 (N); TEV protease cleavage site (N); made in house; host or cells: baculovirus-SF9 insect cells
- Sequence (P50613 whole entry, the tested form may be a part): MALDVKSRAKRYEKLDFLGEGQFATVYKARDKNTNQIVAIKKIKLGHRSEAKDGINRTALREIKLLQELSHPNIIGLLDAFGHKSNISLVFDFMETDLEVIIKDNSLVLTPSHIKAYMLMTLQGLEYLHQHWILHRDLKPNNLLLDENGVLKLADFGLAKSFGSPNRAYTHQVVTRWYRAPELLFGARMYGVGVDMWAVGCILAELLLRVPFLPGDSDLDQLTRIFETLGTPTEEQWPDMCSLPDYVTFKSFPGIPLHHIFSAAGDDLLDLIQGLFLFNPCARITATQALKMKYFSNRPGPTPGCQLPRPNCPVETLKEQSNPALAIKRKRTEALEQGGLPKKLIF
- Sequence (P51946 whole entry partner, the tested form may be a part): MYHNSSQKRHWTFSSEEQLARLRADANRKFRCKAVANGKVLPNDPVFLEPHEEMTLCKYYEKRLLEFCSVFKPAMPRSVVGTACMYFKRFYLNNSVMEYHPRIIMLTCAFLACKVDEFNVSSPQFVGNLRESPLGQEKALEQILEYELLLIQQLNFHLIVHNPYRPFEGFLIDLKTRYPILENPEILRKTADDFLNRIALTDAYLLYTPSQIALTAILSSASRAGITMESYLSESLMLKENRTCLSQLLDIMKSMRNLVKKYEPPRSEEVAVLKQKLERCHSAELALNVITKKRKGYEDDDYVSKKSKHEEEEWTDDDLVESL
- Sequence (P51948 whole entry partner, the tested form may be a part): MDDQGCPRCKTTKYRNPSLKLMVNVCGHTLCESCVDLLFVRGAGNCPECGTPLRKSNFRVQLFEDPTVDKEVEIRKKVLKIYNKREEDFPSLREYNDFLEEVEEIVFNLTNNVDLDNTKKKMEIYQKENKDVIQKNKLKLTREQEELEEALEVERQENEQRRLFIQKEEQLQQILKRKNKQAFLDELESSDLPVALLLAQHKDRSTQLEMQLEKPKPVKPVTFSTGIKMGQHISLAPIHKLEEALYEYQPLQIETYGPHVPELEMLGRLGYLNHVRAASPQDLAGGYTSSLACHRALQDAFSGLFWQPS
- test_method_notes: Absorbance kinetic assay (20 nM CDK7/Cyclin H/MAT-1 complex)
- Type: biochemical
Could you please report measured CDK7 (20 nM) pIC50 for the items listed next?

Please report CDK7 (20 nM) pIC50 for every entry that follows.
1. C[C@@H]1Cc2cnc(N[C@H]3CC[C@H](O)CC3)nc2CN1C(=O)[C@H]1CCN(C)C[C@@H]1c1ccccc1 [Compound 12]
2. C[C@@H]1Cc2cnc(N[C@@H](CO)c3ccccc3)nc2CN1C(=O)[C@H]1CCN(C)C[C@@H]1c1ccccc1 [Compound 71]
3. CC(C)n1ccc(CNc2ncc3c(n2)CN(C(=O)[C@H]2CCN(C)C[C@@H]2c2ccccc2)[C@H](C)C3)n1 [Compound 66]
4. CO[C@H]1CC[C@H](Nc2cc3c(cn2)C[C@H](C)N(C(=O)[C@@H]2CCN(C)C[C@H]2c2cccc(C)c2)C3)CC1 [Compound 177b]
5. C[C@@H]1Cc2cnc(NC[C@@H]3CCOC3)nc2CN1C(=O)[C@H]1CCN(C)C[C@@H]1c1ccccc1 [Compound 62]
6. C[C@@H]1Cc2cnc(NC3CCOCC3)nc2CN1C(=O)[C@H]1CCN(C)C[C@@H]1c1ccccc1 [Compound 47]

## Result
1. >8.01
2. >8.01
3. >8.01
4. <5
5. >8.01
6. >7.7

Ref: patent US12679839B2
